Origin of values: patent US4788214A

Please go through the items and note down their Guinea Pig Bronchoconstriction In vivo aerosol - IC50.
- Tested on: leukotriene E4 bronchoconstriction
- measurement-protocol: Guinea Pig Bronchoconstriction, In Vivo (Aerosol), leukotriene E4 challenge
- Parameters: species or system guinea pig (Hartley strain)
- measurement-parameters: five minute exposure, drug concentration of aerosol solution (w/v), leukotriene E4 i.v.

# return Guinea Pig Bronchoconstriction In vivo aerosol - IC50 for each item in the list
1. CCCc1c(OCCCOc2ccc3c(c2)CCC(C)(C(=O)O)O3)ccc(C(C)=O)c1O (racemic)
2. CCCc1c(OCCCOc2cc3c(cc2C(C)=O)OC(C)(C(=O)O)CC3)ccc(C(C)=O)c1O (racemic)
3. CCCc1c(OCCCOc2ccc3c(c2CCC)OC(C(=O)O)CC3)ccc(C(C)=O)c1O (racemic)
4. CCCc1c(OCCCOc2ccc3c(c2)CCC(C)(CCC(=O)O)O3)ccc(C(C)=O)c1O (racemic)

Result string:
0.20%
1.0%
0.20%
> 1.0%
